biological target: galectin-3 (Homo sapiens (Human)); assay: Fluorescence anisotropy assay, inhibition of galectin / fluorescein tagged saccharide probe interaction
Sequence (P17931 whole entry): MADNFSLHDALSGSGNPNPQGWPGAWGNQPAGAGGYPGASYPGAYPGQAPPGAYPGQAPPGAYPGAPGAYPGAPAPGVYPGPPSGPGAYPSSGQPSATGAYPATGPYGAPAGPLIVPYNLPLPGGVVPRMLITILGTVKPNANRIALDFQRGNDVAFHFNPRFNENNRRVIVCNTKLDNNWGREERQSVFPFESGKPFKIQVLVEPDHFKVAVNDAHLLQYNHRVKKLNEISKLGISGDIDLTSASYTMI
endpoint_name: Kd (µM)
API: value field is a number in µM; no unit string.

Use these answered entries as a reference point.
CO[C@@H]1[C@@H](n2cc(-c3cc(F)c(F)c(F)c3)nn2)[C@@H](O)[C@@H](CO)O[C@@H]1Sc1cncc(C#N)c1 [Example 59] ... 0.076
CO[C@@H]1[C@@H](n2cc(-c3cc(F)c(F)c(F)c3)nn2)[C@@H](O)[C@@H](CO)O[C@@H]1Sc1cc(Cl)cnc1-c1cccnc1 [Example 26] ... 0.055
CO[C@@H]1[C@@H](n2cc(-c3cc(F)c(Cl)c(F)c3)nn2)[C@@H](O)[C@@H](CO)O[C@@H]1Sc1cc(Cl)ccc1C(=O)N1CCC1 [Example 40] ... 0.015
CNCCO[C@@H]1[C@@H](n2cc(-c3cc(F)c(F)c(F)c3)nn2)[C@@H](O)[C@@H](CO)O[C@@H]1Sc1cncc(Br)c1 [Example 20] ... 0.071
CO[C@@H]1[C@@H](n2cc(-c3ccc(Cl)c(F)n3)nn2)[C@@H](O)[C@@H](CO)O[C@@H]1Sc1cc(Cl)cnc1C#N [Example 55] ... 0.35

Turning now to a further compound:
Briefly, Kd measured for CO[C@@H]1[C@@H](n2cc(-c3ccc(Cl)c(F)c3)nn2)[C@@H](O)[C@@H](CO)O[C@@H]1Sc1cc(Br)cnc1C#N [Example 51] : 0.037

* * *

// reported Papp A→B per item
Assay: Uptake over CACO-2 cell monolayers
Type: in vitro ADME
Settings: human, apical to basolateral
Description: Uptake of a drug over the intestine can be predicted measuring the uptake over a monolayer of CACO-2 cells measured as Papp(10^-6 cm/s). […] By introduction of small alkyl substituents to the galactoside 2-OH such as compounds of formula (1) results in low or no efflux combined with a high uptake (Papp >10 10^-6 cm/s) over CACO-2 cells from the apical to the basolateral side of the cells.
API: value field is a number in ×10⁻⁶ cm/s; no unit string.

Use these answered entries as a reference point.
Cc1ccc(-c2cn([C@@H]3C(O)[C@@H](Sc4cc(Cl)cnc4C#N)OC(CO)[C@@H]3O)nn2)cc1F (some centres unmarked) ... 3
CO[C@@H]1[C@@H](n2cc(-c3ccc(C)c(F)c3)nn2)[C@@H](O)[C@@H](CO)O[C@@H]1Sc1cncc(Br)c1 ... 28
CO[C@@H]1[C@@H](n2cc(-c3cc(F)c(F)c(F)c3)nn2)[C@@H](O)[C@@H](CO)O[C@@H]1Sc1cncc(Br)c1 ... 30

Briefly, Papp A→B measured for N#Cc1ncc(Cl)cc1S[C@H]1OC(CO)[C@H](O)[C@H](n2cc(-c3cc(F)c(Cl)c(F)c3)nn2)C1O (some centres unmarked) : 5

Briefly, Papp A→B measured for OCC1O[C@H](Sc2cncc(Cl)c2)C(O)[C@@H](n2cc(-c3cc(F)c(F)c(F)c3)nn2)[C@H]1O (some centres unmarked) : 4

Briefly, Papp A→B measured for CO[C@@H]1[C@@H](n2cc(-c3ccc(C)c(F)n3)nn2)[C@@H](O)[C@@H](CO)O[C@@H]1Sc1cncc(Cl)c1 : 26

Briefly, Papp A→B measured for CO[C@@H]1[C@@H](n2cc(-c3ccc(C)c(F)c3)nn2)[C@@H](O)[C@@H](CO)O[C@@H]1Sc1cc(Cl)cnc1C#N : 18

Briefly, Papp A→B measured for CO[C@@H]1[C@@H](n2cc(-c3ccc(C)c(F)c3)nn2)[C@@H](O)[C@@H](CO)O[C@@H]1Sc1cncc(Cl)c1 : 31
